- EXPERIMENT_SUMMARY: chemical genetic growth profiling, strain panel (AID 1159580);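 note: tested at 20 µM; growth read once vehicle control cultures reached saturation at 30 °C; 1 = growth at the plate median or of vehicle wells; lower values mean less growth of the strain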
- CONDITION_INFO: S. cerevisiae deletion strains, growth OD, locus YPL078C, strain atp4, hits give low values
The campaign covered roughly 5,500 compounds. About 2,000 (36%) were called active. About 18% were inconclusive and are not listed. The list shows a part of the results.
ENDPOINT_LABEL: normalized growth
Please reply with the number alone, leaving off any unit.

CC1=NCCc2c1[nH]c1cc(O)ccc21 has a reported normalized growth of 0.928

compound NCCc1ccc(O)cc1 , normalized growth observed: 0.997

Sample CCCCC1C(=O)N(c2ccccc2)N(c2ccccc2)C1=O ; normalized growth observed: 1.02

Value of measured normalized growth for the entry O=c1c2ccccc2[se]n1-c1ccccc1 : 0.707

For reference, reported normalized growth for CC[N+]1(C)CCCC(OC(=O)C(O)(c2ccccc2)c2ccccc2)C1 (configuration not stated) stands at 1.02

Documented normalized growth of O=C(O)c1nc2cc(Cl)c(Cl)cc2[nH]c1=O : 1

Quick note, normalized growth for COc1cc([C@@H]2c3cc4c(cc3[C@H](OC(C)=O)[C@H]3COC(=O)[C@H]23)OCO4)cc(OC)c1OC landed at 0.998

What the record says about CCCCCCc1ccc(O)cc1O : normalized growth is 0.891

# normalized growth of O=c1[nH]c2cc(Cl)c(Cl)cc2[nH]c1=O = 0.997

Per the records, this compound ( Cn1c(=O)c2[nH]c(C3CCCC3)nc2n(C)c1=O ) has normalized growth equal to 0.997

The compound listed as CN(N=O)C(=O)N[C@@H]1[C@@H](O)[C@H](O)[C@@H](CO)O[C@@H]1O has a reported normalized growth of 0.993

Memo: ClC(Cl)=C(c1ccc(Cl)cc1)c1ccc(Cl)cc1 , reported normalized growth: 0.991

---

- EXPERIMENT_SUMMARY: chemical genetic growth profiling, strain panel (AID 1159580)
- CONDITION_INFO: S. cerevisiae deletion strains, growth OD, locus YDL132W, strain cdc53
The whole screen tested about 5,500 compounds, of which about 2,000 (36%) were called active. Another 18% or so got no clear call; they are omitted. Cut-off read from the data, not from the text of the source: active = normalized growth mostly below about 0.91 (no sharp cut-off); inconclusive = no clear call, values can overlap the other calls; inactive = mostly above about 0.92. This is one part of the list.
Response enum: active, inactive

Entry N#CCC(=O)c1cccc(CSc2ccccc2Cl)c1 : call = ?
inactive

Please indicate how the test categorized O=C1c2ccccc2O[C@@H](c2ccccc2)[C@@H]1NCc1ccccc1 .
active

Fill in: this test's call for CC(C)(C)c1cc2nc(C(F)(F)F)cc(NNC(=O)c3ccc(Cl)cc3)n2n1 is ___
inactive

Per the assay record, what outcome was assigned to C/C(=N/Nc1nc(C(C)(C)C)cs1)c1ccc(Cl)c(Cl)c1 ?
inactive

Which outcome was assigned to O=C(NNC(=O)c1csc(-c2cccs2)n1)c1ccc(C(F)(F)F)cc1 in this test?
inactive

How did this test come out for O=C(NCc1cccs1)c1csc(Cc2c(Cl)cccc2Cl)n1 ?
inactive

Give the logged outcome of this assay for the following compound: Cc1cc(C(=O)N(c2ccccc2)C(C)C2CC2)c(Cl)cc1Cl (stereo unspecified)
inactive

# outcome recorded in this test, key = CCC(C)COC(=O)/C=C/c1ccc(N=Cc2ccc(OC)cc2)cc1 (stereo unspecified)
inactive

Called result for CC(C)(C)c1csc(NNC(=O)c2ccc(Cl)cc2)n1
inactive

Give the logged outcome of this assay for the following compound: O=C1c2ccccc2O[C@@H](c2ccccc2)[C@@H]1NC1CCCCC1
active

What classification did COc1cc(NC(=S)Nc2ccccc2OC(F)(F)F)cc(C(F)(F)F)c1 end up with in this test?
inactive

---

- EXPERIMENT_SUMMARY: chemical genetic growth profiling, strain panel (AID 1159580)
- CONDITION_INFO: S. cerevisiae deletion strains, growth OD, locus YJL154C, strain vps35, hits give low values
The whole screen tested about 5,500 compounds, of which about 2,000 (36%) were called active. About 18% were inconclusive and are not listed. The list shows a part of the results.
Binarize normalized growth at 1; below is Met, at or above is Not met.

Please state whether normalized growth is below 1 for COc1ccc(-c2cc(=O)c3cc(OC)ccc3o2)cc1
Met

Determine whether this compound shows normalized growth lower than 1 (ties excluded): O=c1c2ccccc2[se]n1-c1ccccc1
Met

State whether 1 exceeds normalized growth recorded for CN(C)C(=O)Oc1cc(OC(=O)N(C)C)cc(C(O)CNC(C)(C)C)c1 (stereo unspecified) .
Not met

---

For each of the compounds below, state its normalized growth.
- EXPERIMENT_SUMMARY: chemical genetic growth profiling, strain panel (AID 1159580);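 note: tested at 20 µM; growth read once vehicle control cultures reached saturation at 30 °C; 1 = growth at the plate median or of vehicle wells; lower values mean less growth of the strain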
- CONDITION_INFO: S. cerevisiae deletion strains, growth OD, locus YNL248C, strain rpa49, hits give low values
About 2,000 (36%) of roughly 5,500 compounds were called active. Roughly 18% stayed inconclusive and do not appear here. The list shows a part of the results.
Kindly provide the number alone.

What the record says about CC[C@]12C=CCN3CC[C@@]4(c5ccc(OC)cc5N(C)C4[C@@](O)(C(=O)OC)[C@@H]1OC(C)=O)[C@@H]32 (some centres undefined) : normalized growth is 0.982

Reported normalized growth for NCCc1ccc(O)cc1 was 0.856

Data point: CC(C)(O)[C@@H]1CC[C@](C)([C@H]2[C@@H](O)C[C@@]3(C)C4C[C@H](O[C@@H]5O[C@H](CO)[C@@H](O)[C@H](O)[C@H]5O)C5C(C)(C)[C@@H](O[C@@H]6OC[C@@H](O)[C@H](O)[C@H]6O)CC[C@@]56C[C@@]46CC[C@]23C)O1 (some centres undefined) ; normalized growth = 0.981

The recorded normalized growth for entry CC1(C)O[C@@H]2CC3C4C[C@H](F)C5=CC(=O)C=C[C@]5(C)[C@@]4(F)[C@@H](O)C[C@]3(C)[C@]2(C(=O)CO)O1 (some centres undefined) equals 1.01

---

What normalized growth was measured for each of the following?
- EXPERIMENT_SUMMARY: chemical genetic growth profiling, strain panel (AID 1159580);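 note: tested at 20 µM; growth read once vehicle control cultures reached saturation at 30 °C; 1 = growth at the plate median or of vehicle wells; lower values mean less growth of the strain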
- CONDITION_INFO: S. cerevisiae deletion strains, growth OD, locus YDR069C, strain doa4, hits give low values
In all, about 5,500 compounds went through this assay and about 2,000 (36%) were called active. Roughly 18% stayed inconclusive and do not appear here. The list shows a part of the results.

Given item COc1cccc2c1cc([N+](=O)[O-])c1c(C(=O)O)cc3c(c12)OCO3 , the value recorded as its normalized growth is 1.02 (inactive)

Input CC(=O)Oc1c(-c2ccccc2)oc2c(CC=C(C)C)c3c(c(OC(C)=O)c2c1=O)C=CC(C)(C)O3 . Output normalized growth: 1.01 (inactive)

Memo: CC(=O)N(O)CCCCCNC(=O)CCC(=O)N(O)CCCCCNC(=O)CCC(=O)N(O)CCCCCN , reported normalized growth: 0.978 (inactive)

Summary for this compound, O=c1c2ccccc2[se]n1-c1ccccc1 : normalized growth is 0.0621 (active)

Value of normalized growth reported for the compound COc1cc([C@@H]2c3cc4c(cc3[C@H](O)[C@H]3COC(=O)[C@@H]23)OCO4)cc(OC)c1OC is 1.03 (inactive)

compound CC1(C)O[C@@H]2CC3C4C[C@H](F)C5=CC(=O)C=C[C@]5(C)[C@@]4(F)[C@@H](O)C[C@]3(C)[C@]2(C(=O)CO)O1 (some centres undefined) , normalized growth observed: 1 (inactive)

Sample C=C1C2CC[C@@]3(C)[C@H](c4ccoc4)OC(=O)C[C@]13O[C@H]1CC(=O)C(C)(C)[C@H](C(O)C(=O)OC)[C@@]21C (some centres undefined) ; normalized growth observed: 0.99 (inactive)

Noted for O=C1CN2Cc3c(ccc(Cl)c3Cl)N=C2N1 : its normalized growth reads 0.972 (inactive)

CC[C@]12C=CCN3CC[C@@]4(c5ccc(OC)cc5N(C)C4[C@@](O)(C(=O)OC)[C@@H]1OC(C)=O)[C@@H]32 (some centres undefined) has a reported normalized growth of 0.989 (inactive)

---

- EXPERIMENT_SUMMARY: chemical genetic growth profiling, strain panel (AID 1159580);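 note: tested at 20 µM; growth read once vehicle control cultures reached saturation at 30 °C; 1 = growth at the plate median or of vehicle wells; lower values mean less growth of the strain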
- CONDITION_INFO: S. cerevisiae deletion strains, growth OD, locus YPL240C, strain hsp82
Hit rate of the full screen: of about 5,500 compounds, about 2,000 (36%) were called active. Another 18% or so got no clear call; they are omitted. Cut-off read from the data, not from the text of the source: active = normalized growth mostly below about 0.91 (no sharp cut-off); inconclusive = no clear call, values can overlap the other calls; inactive = mostly above about 0.92. The list shows a part of the results.
Your response should consist of one outcome taken from label 1 (active), label 0 (inactive)

Dear colleague, could you share the recorded outcome for O=c1c(-c2cc(O)c(O)c(O)c2)coc2cc(O)c(O)c(O)c12 when you have a moment?
label 0

Name the outcome recorded for COc1cc2c3cc1Oc1cc(ccc1O)C[C@@H]1c4c(cc(OC)c(O)c4Oc4ccc(cc4)C[C@@H]3N(C)CC2)CC[N+]1(C)C in the assay.
label 0

Please share the test call associated with CCN(CC)CCNc1ccc(CO)c2sc3ccccc3c(=O)c12 .
label 0

// return assay outcome for CC1(C)O[C@@H]2CC3C4C[C@H](F)C5=CC(=O)C=C[C@]5(C)[C@@]4(F)[C@@H](O)C[C@]3(C)[C@]2(C(=O)CO)O1 (some centres undefined)
label 0

Per the assay record, what outcome was assigned to CC(=O)O.CC(=O)O.[Cd] ?
label 1

Status in this test for COc1cccc2c1cc([N+](=O)[O-])c1c(C(=O)O)cc3c(c12)OCO3 ?
label 0

Please let me know the test result on file for CC(=O)[C@H]1CCC2C3CC=C4C[C@@H](OC(=O)CCC(=O)O)CC[C@]4(C)C3CC[C@@]21C (some centres undefined) .
label 0

Give the logged outcome of this assay for the following compound: CC(=O)OCC(=O)[C@H]1CCC2C3CC=C4C[C@@H](O)CC[C@]4(C)C3CC[C@@]21C (some centres undefined)
label 0

Identify the outcome logged in this assay for the compound shown: COc1cc([C@@H]2c3cc4c(cc3C(O[C@@H]3O[C@@H]5CO[C@@H](c6cccs6)OC5[C@H](O)[C@H]3O)C3COC(=O)[C@@H]32)OCO4)cc(OC)c1O (some centres undefined)
label 0

Identify the outcome logged in this assay for the compound shown: CCC(/C=C/[C@@H](C)[C@H]1CCC2C3CC=C4C[C@@H](O)CC[C@]4(C)C3CC[C@@]21C)C(C)C (some centres undefined)
label 0

Which result was noted for this compound in the test: CC1=CCc2c(cc3oc(C)cc(=O)c3c2O)OC1
label 0

Each compound tested received a call. Report the one for CC(=O)O[C@@H]1CC2C(C)(C)[C@H](O)C[C@H](O)[C@]2(C)C2CC[C@@]3(C)[C@H](c4ccoc4)OC(=O)[C@H]4O[C@]43[C@@]21C (some centres undefined) .
label 0

In this assay, the call recorded for O=c1[nH]c2cc(Cl)c(Cl)cc2[nH]c1=O was what?
label 0

Answer briefly: the call reported for O=C1CC[C@]23C=CC(=O)NCCCCNCCCNC(=O)/C=C/c4ccc(c2c4)O[C@@H]3C1 in this assay.
label 0

What was the test verdict on NC(=O)CC[C@@H](N)C(=O)O ?
label 0

Dear all, I need the recorded test outcome for CCCCCCCCCCCCCCCC[n+]1ccccc1 , thank you.
label 1

Would you mind telling me which call this test gave CC(=O)Oc1ccc(-c2cc(=O)c3c(OC(C)=O)cc(OC(C)=O)cc3o2)cc1 ?
label 0

Which outcome was assigned to O=C1CCc2cc(OCCCCc3nnnn3C3CCCCC3)ccc2N1 in this test?
label 0

Per the records of this test, what outcome belongs to CC1=C2C(=CO[C@H](C)[C@H]2C)C(=O)C(C(=O)O)=C1O ?
label 0
